# Test system: NCI-H23
# PROTOCOL DESCRIPTION: NCI tumour cell line growth inhibition, 48 h
The source made the active and inactive calls. No stated cut-off is given here; in the data, active = GI50 up to about 1.1 µM and inactive = higher.
The following compounds are shown together with reported GI50 values.

// known answers, use as guide
1. Cc1ccccc1N(CC(=O)O)S(=O)(=O)c1ccccc1; > 100 µM (inactive)
2. CCOP(=O)(OCC)C(Nc1cccc([N+](=O)[O-])c1)c1ccccc1 (configuration not stated); > 100 µM (inactive)

[in] I would be grateful if you could share the reported GI50 for NCCO/C=C/C(N)C(=O)O (configuration not stated) .
[out] > 100 µM (inactive)

[in] I would be grateful if you could share the reported GI50 for COc1ccc2c(C(=O)c3c(C)n(CCN4CCOCC4)c4ccccc34)cccc2c1 .
[out] 18.8 µM (inactive)

[in] I would be grateful if you could share the reported GI50 for COc1cc(/C=N\O)cc(/C=N/O)c1O .
[out] > 100 µM (inactive)

[in] I would be grateful if you could share the reported GI50 for Cc1nc(-n2nc(-c3ccccc3)cc2-c2ccccc2)sc1C(/C=C/c1ccc([N+](=O)[O-])cc1)=N/NC(=O)c1ccncc1 .
[out] 14.8 µM (inactive)

[in] I would be grateful if you could share the reported GI50 for O=c1[nH]nc(Cc2ccccc2)n1CCCl .
[out] > 100 µM (inactive)

====

# Tested on: LOX IMVI
# PROTOCOL DESCRIPTION: NCI tumour cell line growth inhibition, 48 h
The source made the active and inactive calls. Rule as the data show it: active = GI50 up to about 1.1 µM and inactive = higher.
The following compounds are shown together with reported GI50 values.

1. Cc1cc(Cl)nc2ccc(Cc3ccc4nc(Cl)cc(C)c4c3)cc12; 56.5 µM (inactive)
2. N#CC(/C(=N/NC(=O)C(=O)NN)C(=O)NC12CC3CC(CC(C3)C1)C2)c1ccccc1 (centres undefined); > 100 µM (inactive)
3. CCC(=O)C(CCN1CCC(N2C(=O)C(CCC#N)c3ccccc32)CC1)(c1ccccc1)c1ccccc1 (centres undefined); 12.8 µM (inactive)
4. COc1ccc(NC(C)=O)c(C(O)CCNC(C)=O)c1 (centres undefined); > 100 µM (inactive)
5. Sc1nnc(CCCCCCCCc2nnc(S)o2)o1; > 100 µM (inactive)

[in] I would be grateful if you could share the reported GI50 for CC(C)(Oc1ccc(/C=C/C(=O)c2ccc(Cl)cc2)cc1)C(=O)Nc1c(Cl)cccc1Cl .
[out] 16 µM (inactive)

[in] I would be grateful if you could share the reported GI50 for CO[C@H](C(=O)O[C@H]1C(=O)N2CC[C@@H]3CCC[C@H]1C32C)c1ccccc1 (some centres undefined) .
[out] > 100 µM (inactive)

[in] I would be grateful if you could share the reported GI50 for C/C(=C/CC[C@](C)(OC1OC(CO)C(O)C(O)C1OC1OC(C)C(O)C(O)C1O)[C@H]1CC[C@]2(C)[C@@H]1CC[C@@H]1[C@@]3(C)CC[C@H](O)C(C)(C)[C@@H]3C[C@H](O)[C@]12C)CO (some centres undefined) .
[out] > 100 µM (inactive)

[in] I would be grateful if you could share the reported GI50 for O=c1cn[nH]c(=S)n1/N=C/c1c[nH]c2ccccc12 .
[out] 30 µM (inactive)

====

# System: HOP-92
# PROTOCOL DESCRIPTION: NCI tumour cell line growth inhibition, 48 h
Active and inactive are the calls of the source. Rule as the data show it: active = GI50 up to about 1.1 µM and inactive = higher.
In this exercise, the only acceptable responses are active, inactive

Here are 5 compounds together with their reported answers.
1) CCCCn1c(C)c(C(=O)OCC)s/c1=N/Nc1nc2ccccc2nc1-c1ccccc1; inactive
2) CC1(C)C(CCO)CC1n1cc(I)c(=O)[nH]c1=O (configuration not stated); inactive
3) CCOC(=O)C(=CNC(=S)N/N=C1\C(=O)Nc2ccccc21)C(=O)OCC; inactive
4) O=c1oc2ccccc2cc1-c1cc2ccccn2c1; inactive
5) COc1ccc(/N=C2/C(=N/c3ccc(OC)cc3)N(c3ccccc3)C(=S)N2N=C=C2Sc3ccccc3N2C)cc1; inactive

Now look at this entry.
[in] Test call for this compound, please: O=C(c1ccc(Cl)c(Cl)c1)N(Cc1cccnc1)C(=S)N(Cc1cccnc1)C(=O)c1ccc(Cl)c(Cl)c1
[out] inactive

====

# Test system: OVCAR-8
# PROTOCOL DESCRIPTION: NCI tumour cell line growth inhibition, 48 h
Activity calls are given as the source filed them. Rule as the data show it: active = GI50 up to about 1.1 µM and inactive = higher.
The following compounds are shown together with reported GI50 values.

// known answers, use as guide
1. CCCCC1c2c([nH]c3ccccc23)C2C(=O)N(c3ccc(OC)cc3)C(=O)C2C1CCC (centres undefined); 2.65 µM (inactive)
2. C=CCNC(=O)N(CCCC(NC(C)=O)C(=O)NCc1ccccc1)Cc1ccccc1 (centres undefined); > 100 µM (inactive)
3. O=c1cn[nH]c(=S)n1/N=C/c1c[nH]c2ccccc12; 32.8 µM (inactive)

[in] I would be grateful if you could share the reported GI50 for O=C1C(Cl)=C(N2CCN(c3ccccn3)CC2)C(=O)c2ncccc21 .
[out] 1.32 µM (inactive)

[in] I would be grateful if you could share the reported GI50 for c1ccc2c(c1)CCc1c(-c3n[nH]c4c3CCc3ccccc3-4)n[nH]c1-2 .
[out] > 100 µM (inactive)

[in] I would be grateful if you could share the reported GI50 for CN/N=C(\C)C(CN1CCCCC1)C(C1=C(O)c2ccccc2OC1)c1ccccc1 (centres undefined) .
[out] > 100 µM (inactive)

====

# System: DMS-273
# PROTOCOL DESCRIPTION: NCI tumour cell line growth inhibition, 48 h
Active and inactive are the calls of the source. Rule as the data show it: active = GI50 up to about 1.1 µM and inactive = higher.
In this exercise, the only acceptable responses are active, inactive

Here are 4 molecules together with their reported answers.
1) COc1cc(/C=C\c2ccc(Br)cc2)cc(OC)c1OC; active
2) CN(C)CCNC(=O)c1cccc2ccc(-c3ccncc3)nc12; active
3) C[C@]12CC[C@H](OC(=O)Nc3ccccc3)CC1=CC[C@@H]1C2CC[C@]2(C)/C(=N/OC(=O)Nc3ccccc3)CCC12 (some centres not stated); inactive
4) CCC1c2cc3n(c(=O)c2COC1O)Cc1c-3nc2ccccc2c1Cl (configuration not stated); inactive

[in] Test call for this molecule, please: CCOC(=O)/C(=C\c1ccccc1)C(=O)O
[out] inactive

[in] Test call for this molecule, please: N#CC1(C#N)C2(c3ccccc3)OC(c3ccccc3)(c3cc4ccccc4cc32)C1(C#N)C#N
[out] inactive

[in] Test call for this molecule, please: COc1ccc2c3c(coc13)C(CCC(=O)O)CC2 (configuration not stated)
[out] inactive

[in] Test call for this molecule, please: Nc1cccc2c1C(=O)c1cccc(N)c1C2=O
[out] inactive

====

# Tested on: OVCAR-3
# PROTOCOL DESCRIPTION: NCI tumour cell line growth inhibition, 48 h
Active and inactive are the calls of the source. No stated cut-off is given here; in the data, active = GI50 up to about 1.1 µM and inactive = higher.
The following compounds are shown together with reported GI50 values.

1. CC(=O)Nc1ccc2c(C)c3c4ccccc4n(C)c3nc2n1; 26.1 µM (inactive)

[in] I would be grateful if you could share the reported GI50 for COc1cc(Cl)c2c3c(c(C(C)=O)oc13)CCC2 .
[out] > 100 µM (inactive)

[in] I would be grateful if you could share the reported GI50 for COc1ccc(/C=C/C(=O)Oc2cc(O)cc(O)c2)cc1 .
[out] 18 µM (inactive)

[in] I would be grateful if you could share the reported GI50 for Cc1cc2c(cc1Br)C1(C)CCC(C)C1(C)O2 (centres undefined) .
[out] 21.7 µM (inactive)

[in] I would be grateful if you could share the reported GI50 for Cc1cc2c(O)c(c1)COCc1cc(C)cc(c1O)COCc1cc(C)cc(c1O)COC2 .
[out] > 100 µM (inactive)

[in] I would be grateful if you could share the reported GI50 for N/N=C1\C(=O)N(CCc2ccccc2)C(=O)C1C(=O)NCCc1ccccc1 (centres undefined) .
[out] > 100 µM (inactive)

[in] I would be grateful if you could share the reported GI50 for N#CC1CNC(N)NC1N (centres undefined) .
[out] > 100 µM (inactive)

[in] I would be grateful if you could share the reported GI50 for CCCc1c2c([nH]c(=O)c1C)C(=O)c1[nH]c(=O)c(C)c(CCC)c1C2=O .
[out] 1.46 µM (inactive)

[in] I would be grateful if you could share the reported GI50 for Cc1nc(-n2nc(-c3ccccc3)cc2-c2ccccc2)sc1C(/C=C/c1ccc([N+](=O)[O-])cc1)=N/NC(=O)c1ccncc1 .
[out] 12.6 µM (inactive)

[in] I would be grateful if you could share the reported GI50 for CCCN(CCC)C(=O)c1c(N2CCN(C)CC2)c2cccnc2n2c(C)cnc12 .
[out] 94.8 µM (inactive)

[in] I would be grateful if you could share the reported GI50 for S=C(Nc1ccccc1)c1ccc(CN2CCCCC2)s1 .
[out] 48.6 µM (inactive)

[in] I would be grateful if you could share the reported GI50 for CCC1c2cc3n(c(=O)c2COC1O)Cc1c-3nc2ccccc2c1Cl (centres undefined) .
[out] > 100 µM (inactive)

[in] I would be grateful if you could share the reported GI50 for Cc1cc(Cl)ccc1OCC(=O)Oc1c(Cl)c(Cl)c(Cl)c(Cl)c1Cl .
[out] 18.2 µM (inactive)

[in] I would be grateful if you could share the reported GI50 for O=[N+]([O-])c1ccc2c(c1)S(=O)(=O)N1Cc3ccccc3CCN21 .
[out] 48.8 µM (inactive)

[in] I would be grateful if you could share the reported GI50 for COC(=O)/C=C(C)/C=C\COC1CCCCO1 (centres undefined) .
[out] > 100 µM (inactive)

[in] I would be grateful if you could share the reported GI50 for c1ccc2c(Cc3c[nH]c4ccccc34)c[nH]c2c1 .
[out] 15.7 µM (inactive)

[in] I would be grateful if you could share the reported GI50 for COCC1OC(Sc2ccccc2)C(O)C(OC)C1OC (centres undefined) .
[out] > 100 µM (inactive)
